- assay-notes: growth of efflux-deficient E. coli DRC39 – strain DRC39, OD650, 24 h, E. coli filamentation inducers, primary screen (AID 1178);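 also: growth measured as culture turbidity by optical density at 650 nm; test concentration not given here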
- settings: E. coli DRC39 acrAB, higher = more signal, called active from +8 up or from −8 down
endpoint-label: z-score

molecule	meas-value
CN1C(=O)C2C=CC(C(O)C3=C[C@H]4C[C@@H](C3)C4(C)C)N(Nc3ccc([N+](=O)[O-])cc3[N+](=O)[O-])C2C1=O (stereo partly specified)	-0.146
C=C(C(=O)CC[C@@H](OC(C)=O)c1ccc(OCCO)cc1)C(C)C	-0.248
O=C1C2C=CC(C(O)c3ccccn3)N(Nc3ccccc3F)C2C(=O)N1c1ccccc1 (stereo unspecified)	-0.628
COc1ccc([Si](C)(C)[C@H]2[C@H](CC(=O)N3CCC[C@H]3CO)O[C@@]3(C(=O)N(Cc4cccc(N5CCC5=O)c4)c4ccccc43)[C@@H]2C)cc1	0.791
C=C[C@@H](C)[C@@H](OC(=O)Nc1ccc(OC)cc1)c1ccc(O)c2ccccc12	0.99
Cc1ccc(S[C@]2(C(=O)NCC(C)C)CC(=O)N(Cc3ccccc3)[C@@H]2c2ccc(CO)cc2)cc1	0.298
Cc1cc(C)c(C(O)C2C=CC3C(=O)NC(=O)C3N2Nc2ccccn2)c(C)c1 (stereo unspecified)	-0.579
CCOC(=O)C[C@H]1[C@H](OC(=O)c2ccc(C(=O)c3ccccc3)cc2)[C@@H](NC(=O)c2ccc3ccccc3n2)c2cc(OCCCO)ccc2N1C(=O)c1ccc2ccccc2n1	0.322
C=C[C@H](C)[C@H](OC(=O)Nc1ccc(OC)cc1)c1ccc(O)c2ccccc12	0.405
COCCOC(=O)N1C(=O)[C@@]2(c3cc(C#CCCO)ccc31)[C@H](C(=O)NC[C@H](O)c1ccccc1)[C@H]1C(=O)O[C@H](c3ccccc3)[C@H](c3ccccc3)N1[C@@H]2c1ccc(OCCO)cc1	0.696
CN1C(=O)C2C(C1=O)C1C=C(c3ccc(CO)cc3)C2C(C2CC2)N1Cc1sc2ccccc2c1Cl (stereo unspecified)	0.225

====

- Test system: Human papillomavirus type 1a E7 protein (residues 1-88)
- assay-notes: HPV1a E7 small-molecule binders, primary screen, biochemical, small-molecule microarray, residues 1-88, 635 nm (AID 1129)
- settings: small-molecule microarray binding, fluorescence 635 nm; higher = more signal
Parameter: composite z-score. Scope: all listed entries.
endpoint-label: composite z-score

>>> print(df.to_string())
                                   compound  meas_value
0  CCCCN1CC=CC23O[C@@H]4/C=C\CCCOC(=O)C4[C@H]2C(=O)N(C(C)CO)[C@@H]3C1=O (stereo not given in full)      -0.582
1  COCCCNC(=O)[C@]1(Cc2ccccc2N=[N+]=[N-])N=C(c2ccc(OCCCO)cc2)O[C@@H]1c1ccccc1CN=[N+]=[N-]        1.22
2  C=CC[C@]1(C(=O)NCCN2CCOCC2)N=C(c2ccc(OCCCO)cc2)O[C@H]1c1ccccc1N=[N+]=[N-]        1.16
3  COc1c(C)cc(-c2cc3c(c(-c4ccccc4)n2)[Si](C(C)C)(C(C)C)O[C@H]3c2ccccc2)cc1C       -0.26
4  CCCNC(=O)[C@@]1(C)c2ccccc2C(=O)N(Cc2ccc(OC(F)(F)F)cc2)[C@H]1c1ccc(CO)cc1        1.11
